target_entity: MERTK (UniProt Q12866)
Sequence (Q12866 whole entry, looked up): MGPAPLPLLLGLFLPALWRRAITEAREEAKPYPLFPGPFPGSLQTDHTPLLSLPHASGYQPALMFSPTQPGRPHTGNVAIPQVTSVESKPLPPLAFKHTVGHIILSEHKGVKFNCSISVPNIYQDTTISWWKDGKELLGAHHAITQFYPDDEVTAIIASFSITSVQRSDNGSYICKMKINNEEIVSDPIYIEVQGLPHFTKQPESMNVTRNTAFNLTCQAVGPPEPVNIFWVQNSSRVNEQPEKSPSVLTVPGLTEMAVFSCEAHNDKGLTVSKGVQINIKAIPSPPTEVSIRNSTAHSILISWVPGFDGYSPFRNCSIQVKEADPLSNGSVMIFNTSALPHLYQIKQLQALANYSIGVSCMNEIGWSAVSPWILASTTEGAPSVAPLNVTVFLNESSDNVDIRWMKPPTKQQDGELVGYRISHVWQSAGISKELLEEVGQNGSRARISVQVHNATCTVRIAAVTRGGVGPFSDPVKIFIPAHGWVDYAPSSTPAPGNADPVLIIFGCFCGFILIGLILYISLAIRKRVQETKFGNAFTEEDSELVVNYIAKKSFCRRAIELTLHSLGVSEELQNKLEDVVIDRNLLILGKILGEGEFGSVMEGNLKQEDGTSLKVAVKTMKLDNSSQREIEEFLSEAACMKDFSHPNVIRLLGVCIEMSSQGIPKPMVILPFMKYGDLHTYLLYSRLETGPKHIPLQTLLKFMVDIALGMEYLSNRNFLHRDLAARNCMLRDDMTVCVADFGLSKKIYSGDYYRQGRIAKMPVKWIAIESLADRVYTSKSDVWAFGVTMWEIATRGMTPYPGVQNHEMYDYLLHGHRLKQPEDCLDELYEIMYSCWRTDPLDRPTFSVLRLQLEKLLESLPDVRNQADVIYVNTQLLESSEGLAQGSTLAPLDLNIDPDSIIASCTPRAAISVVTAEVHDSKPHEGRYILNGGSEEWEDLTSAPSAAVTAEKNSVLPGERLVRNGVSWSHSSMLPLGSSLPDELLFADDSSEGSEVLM
experiment: phosphorylation enrichment, bacterial display (enrichment ratio); higher = better substrate or ligand; peptides without Tyr show the background;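 also: 11-residue human phosphosite peptides and single-mutation variants displayed on the E. coli surface, counted by deep sequencing, each peptide's frequency after selection divided by its frequency in the unselected input library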;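 also: frequency after pTyr selection over input frequency; kinase dosed for 20-30% of maximal phosphorylation in three min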
assay_metric: phosphorylation enrichment
Give a plain numeric answer without units written out.

Answered cases to consult:
[
  {
    "monomer_sequence": "NVADHYRVYKP [ATP6V0D2_Y271_G272R]",
    "phosphorylation enrichment": 0.426
  },
  {
    "monomer_sequence": "SENAFYLSPHI [COL6A3_Y2827_D2831H]",
    "phosphorylation enrichment": 0.696
  },
  {
    "monomer_sequence": "ATGLIYIGSHD [AASDH_Y870_T865A]",
    "phosphorylation enrichment": 0.543
  },
  {
    "monomer_sequence": "RYFTTYDTNGR [CLCA1_Y665]",
    "phosphorylation enrichment": 0.557
  },
  {
    "monomer_sequence": "GHLFACDWISI [BEST1_Y227_Y227C_YF]",
    "phosphorylation enrichment": 0.396
  },
  {
    "monomer_sequence": "CTTIHYNYKCN [TP53_Y234_M237K]",
    "phosphorylation enrichment": 0.562
  },
  {
    "monomer_sequence": "WFPANYVKLLS [ITSN1_Y1132]",
    "phosphorylation enrichment": 0.569
  },
  {
    "monomer_sequence": "EGWQVYRLGTR [MISP_Y95_A99T]",
    "phosphorylation enrichment": 0.325
  }
]

Exercise: Form field: reported phosphorylation enrichment of GEHSIYCTVNN [CD55_Y266]
Key: 2.08
